Each recorded value in this set is attributed to the supplement of paper PMC7877785.

Assay: self-splicing fitness, log relative to wild type (ln ratio); higher = more splicing; Tetrahymena group I intron in knt gene, E. coli kanamycin selection, DiMSum; sequences stand for … in CUCUCU…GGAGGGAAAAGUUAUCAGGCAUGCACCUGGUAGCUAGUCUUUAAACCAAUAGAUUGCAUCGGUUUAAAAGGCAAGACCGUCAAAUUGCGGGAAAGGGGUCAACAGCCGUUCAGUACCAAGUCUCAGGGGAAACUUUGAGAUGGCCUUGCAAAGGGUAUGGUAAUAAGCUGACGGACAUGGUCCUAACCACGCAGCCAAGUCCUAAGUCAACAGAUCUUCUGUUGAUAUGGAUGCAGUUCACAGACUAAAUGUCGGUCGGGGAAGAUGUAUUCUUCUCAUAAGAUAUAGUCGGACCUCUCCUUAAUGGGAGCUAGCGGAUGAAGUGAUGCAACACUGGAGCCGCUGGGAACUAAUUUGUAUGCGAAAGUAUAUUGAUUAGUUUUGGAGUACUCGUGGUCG;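 also: selection with 25 µg/mL kanamycin versus none on LB agar overnight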
Conditions: 37 °C
Threshold rule: self-splicing fitness (ln) greater than or equal to -1 is rule met; below that, rule not met.

[
  {
    "Biopolymer sequence": "UGCCAGCAAUAUUACGGGUA",
    "Label value": "rule not met"
  },
  {
    "Biopolymer sequence": "AGAUAGCAAUAUUACGCACA",
    "Label value": "rule met"
  },
  {
    "Biopolymer sequence": "AAAUAGCAAUAUUACGAACU",
    "Label value": "rule met"
  },
  {
    "Biopolymer sequence": "ACUGAGCAAUAUUACGUGGA",
    "Label value": "rule not met"
  },
  {
    "Biopolymer sequence": "GGUCAGCAAUAUUACGGUUC",
    "Label value": "rule met"
  },
  {
    "Biopolymer sequence": "AAACAGCAAUAUUACGCUUU",
    "Label value": "rule not met"
  },
  {
    "Biopolymer sequence": "GUCCAGCAAUAUUACGCCGA",
    "Label value": "rule not met"
  },
  {
    "Biopolymer sequence": "CCUCAGCAAUAUUACGGGCU",
    "Label value": "rule not met"
  },
  {
    "Biopolymer sequence": "GUUGAGCAAUAUUACGGCUC",
    "Label value": "rule not met"
  },
  {
    "Biopolymer sequence": "UCAAAGCAAUAUUACGCUGC",
    "Label value": "rule not met"
  },
  {
    "Biopolymer sequence": "UAGCAGCAAUAUUACGAUGC",
    "Label value": "rule not met"
  },
  {
    "Biopolymer sequence": "AGAGAGCAAUAUUACGAUCU",
    "Label value": "rule not met"
  },
  {
    "Biopolymer sequence": "CAGGAGCAAUAUUACGUUCA",
    "Label value": "rule not met"
  },
  {
    "Biopolymer sequence": "GCUAAGCAAUAUUACGCCGG",
    "Label value": "rule not met"
  },
  {
    "Biopolymer sequence": "CUCUAGCAAUAUUACGAUAU",
    "Label value": "rule not met"
  },
  {
    "Biopolymer sequence": "CGUUAGCAAUAUUACGUAUA",
    "Label value": "rule not met"
  },
  {
    "Biopolymer sequence": "CGAUAGCAAUAUUACGUACG",
    "Label value": "rule not met"
  },
  {
    "Biopolymer sequence": "GUUCAGCAAUAUUACGGUUG",
    "Label value": "rule met"
  },
  {
    "Biopolymer sequence": "AGCGAGCAAUAUUACGGCUA",
    "Label value": "rule met"
  },
  {
    "Biopolymer sequence": "UUAAAGCAAUAUUACGUAGG",
    "Label value": "rule met"
  },
  {
    "Biopolymer sequence": "CCCAAGCAAUAUUACGUUGU",
    "Label value": "rule not met"
  },
  {
    "Biopolymer sequence": "CGCGAGCAAUAUUACGGCUG",
    "Label value": "rule met"
  },
  {
    "Biopolymer sequence": "CUCGAGCAAUAUUACGGUAU",
    "Label value": "rule not met"
  },
  {
    "Biopolymer sequence": "CUUGAGCAAUAUUACGCCGG",
    "Label value": "rule not met"
  },
  {
    "Biopolymer sequence": "AGACAGCAAUAUUACGAUGC",
    "Label value": "rule not met"
  },
  {
    "Biopolymer sequence": "CGUUAGCAAUAUUACGGCGU",
    "Label value": "rule met"
  },
  {
    "Biopolymer sequence": "CAAAAGCAAUAUUACGUUUG",
    "Label value": "rule not met"
  },
  {
    "Biopolymer sequence": "CAGUAGCAAUAUUACGAGGG",
    "Label value": "rule not met"
  },
  {
    "Biopolymer sequence": "ACUCAGCAAUAUUACGCACU",
    "Label value": "rule met"
  },
  {
    "Biopolymer sequence": "GCAUAGCAAUAUUACGUGAG",
    "Label value": "rule met"
  },
  {
    "Biopolymer sequence": "CCAUAGCAAUAUUACGGUUG",
    "Label value": "rule met"
  },
  {
    "Biopolymer sequence": "GGUAAGCAAUAUUACGUUGA",
    "Label value": "rule not met"
  },
  {
    "Biopolymer sequence": "AGGGAGCAAUAUUACGCGAA",
    "Label value": "rule not met"
  },
  {
    "Biopolymer sequence": "GGACAGCAAUAUUACGAACA",
    "Label value": "rule met"
  }
]

---

Experiment: self-splicing fitness, log relative to wild type (ln ratio); higher = more splicing; Tetrahymena group I intron in knt gene, E. coli kanamycin selection, DiMSum; sequences stand for … in CUCUCU…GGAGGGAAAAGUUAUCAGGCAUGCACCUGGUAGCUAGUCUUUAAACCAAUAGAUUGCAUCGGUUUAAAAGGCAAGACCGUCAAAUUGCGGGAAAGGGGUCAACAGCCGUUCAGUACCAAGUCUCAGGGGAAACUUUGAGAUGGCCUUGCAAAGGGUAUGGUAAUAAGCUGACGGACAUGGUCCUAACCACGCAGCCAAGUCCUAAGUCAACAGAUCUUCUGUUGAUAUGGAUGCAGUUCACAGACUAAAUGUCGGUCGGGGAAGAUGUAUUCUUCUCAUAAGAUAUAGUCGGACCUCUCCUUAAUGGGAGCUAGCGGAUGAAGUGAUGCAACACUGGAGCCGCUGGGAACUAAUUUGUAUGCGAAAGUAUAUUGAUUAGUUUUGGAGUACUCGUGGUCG
Conditions: 37 °C
Threshold rule: self-splicing fitness (ln) greater than or equal to -1 is MET; below that, NOT MET.

[
  {
    "Biopolymer sequence": "ACGGAGCAAUAUUACGAUCC",
    "Label value": "NOT MET"
  },
  {
    "Biopolymer sequence": "UCAAAGCAAUAUUACGGGCG",
    "Label value": "MET"
  },
  {
    "Biopolymer sequence": "UAGCAGCAAUAUUACGGAAG",
    "Label value": "NOT MET"
  },
  {
    "Biopolymer sequence": "GAUUAGCAAUAUUACGUUUG",
    "Label value": "MET"
  },
  {
    "Biopolymer sequence": "AAUGAGCAAUAUUACGCUGG",
    "Label value": "NOT MET"
  },
  {
    "Biopolymer sequence": "CGUUAGCAAUAUUACGAGGU",
    "Label value": "NOT MET"
  },
  {
    "Biopolymer sequence": "GAAGAGCAAUAUUACGAGAC",
    "Label value": "NOT MET"
  },
  {
    "Biopolymer sequence": "AGCCAGCAAUAUUACGUUGC",
    "Label value": "NOT MET"
  }
]

---

Experiment: self-splicing fitness, log relative to wild type (ln ratio); higher = more splicing; Tetrahymena group I intron in knt gene, E. coli kanamycin selection, DiMSum; sequences stand for … in CUCUCU…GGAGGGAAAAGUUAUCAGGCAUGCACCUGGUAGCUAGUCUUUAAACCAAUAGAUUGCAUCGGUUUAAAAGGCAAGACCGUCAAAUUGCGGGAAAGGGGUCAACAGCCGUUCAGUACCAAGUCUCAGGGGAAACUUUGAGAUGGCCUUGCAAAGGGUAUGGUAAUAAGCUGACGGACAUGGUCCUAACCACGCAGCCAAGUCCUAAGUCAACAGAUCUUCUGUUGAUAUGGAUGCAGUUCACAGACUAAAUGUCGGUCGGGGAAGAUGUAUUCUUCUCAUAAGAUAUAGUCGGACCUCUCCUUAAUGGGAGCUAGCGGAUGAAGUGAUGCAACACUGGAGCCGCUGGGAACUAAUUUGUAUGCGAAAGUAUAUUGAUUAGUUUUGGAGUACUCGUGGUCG
Conditions: 37 °C
Experimental readout: self-splicing fitness (ln)

[
  {
    "Biopolymer sequence": "CAUUAGCAAUAUUACGACGG",
    "Experimental readout": "self-splicing fitness (ln)",
    "Value observed": -0.0198
  },
  {
    "Biopolymer sequence": "GCCUAGCAAUAUUACGGUGG",
    "Experimental readout": "self-splicing fitness (ln)",
    "Value observed": -2.86
  },
  {
    "Biopolymer sequence": "GAUUAGCAAUAUUACGACAA",
    "Experimental readout": "self-splicing fitness (ln)",
    "Value observed": -0.154
  },
  {
    "Biopolymer sequence": "AGAAAGCAAUAUUACGACGG",
    "Experimental readout": "self-splicing fitness (ln)",
    "Value observed": -0.965
  },
  {
    "Biopolymer sequence": "AAGCAGCAAUAUUACGAUGA",
    "Experimental readout": "self-splicing fitness (ln)",
    "Value observed": -0.909
  },
  {
    "Biopolymer sequence": "GCCCAGCAAUAUUACGGUGG",
    "Experimental readout": "self-splicing fitness (ln)",
    "Value observed": -3.59
  },
  {
    "Biopolymer sequence": "CGAAAGCAAUAUUACGGGCA",
    "Experimental readout": "self-splicing fitness (ln)",
    "Value observed": -0.138
  },
  {
    "Biopolymer sequence": "CAUCAGCAAUAUUACGCUAU",
    "Experimental readout": "self-splicing fitness (ln)",
    "Value observed": -2.64
  },
  {
    "Biopolymer sequence": "GGACAGCAAUAUUACGCGAG",
    "Experimental readout": "self-splicing fitness (ln)",
    "Value observed": -0.0238
  },
  {
    "Biopolymer sequence": "UGUAAGCAAUAUUACGUAAC",
    "Experimental readout": "self-splicing fitness (ln)",
    "Value observed": -2.91
  },
  {
    "Biopolymer sequence": "CUAUAGCAAUAUUACGAUAG",
    "Experimental readout": "self-splicing fitness (ln)",
    "Value observed": -2.54
  },
  {
    "Biopolymer sequence": "AGUCAGCAAUAUUACGCGAA",
    "Experimental readout": "self-splicing fitness (ln)",
    "Value observed": -0.704
  },
  {
    "Biopolymer sequence": "CUAAAGCAAUAUUACGGCAA",
    "Experimental readout": "self-splicing fitness (ln)",
    "Value observed": -1.35
  },
  {
    "Biopolymer sequence": "AUAUAGCAAUAUUACGACUC",
    "Experimental readout": "self-splicing fitness (ln)",
    "Value observed": -0.341
  },
  {
    "Biopolymer sequence": "CAGCAGCAAUAUUACGAAGU",
    "Experimental readout": "self-splicing fitness (ln)",
    "Value observed": -2.03
  },
  {
    "Biopolymer sequence": "CCCAAGCAAUAUUACGCUAC",
    "Experimental readout": "self-splicing fitness (ln)",
    "Value observed": -3.04
  }
]
